- EXPERIMENTAL_TARGET: T1, cyno-CD200R1 ECD (cynomolgus monkey)
- T1 construct: also called cynomolgus monkey CD200R1; MfCD200R1 (recombinant)
- T1 chain: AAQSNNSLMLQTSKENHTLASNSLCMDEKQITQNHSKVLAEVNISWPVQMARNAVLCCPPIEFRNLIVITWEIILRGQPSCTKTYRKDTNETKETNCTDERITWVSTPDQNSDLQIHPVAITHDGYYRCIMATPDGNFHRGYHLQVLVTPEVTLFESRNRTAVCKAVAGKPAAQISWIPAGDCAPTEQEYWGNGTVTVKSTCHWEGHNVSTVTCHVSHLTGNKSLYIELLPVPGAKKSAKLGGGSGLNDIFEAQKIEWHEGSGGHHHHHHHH
- ASSAY_NOTES: SPR Biacore 8K 37C; antibody on Protein A chip, CD200R1 analyte;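 also: sensorgrams corrected by subtracting reference and buffer signals, then analysed with Biacore 8K Evaluation Software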
MEASUREMENT_TYPE: Kd
# output: numeric value plus its unit

>>> result("h10F6.V4 (antibody, IgG1, V domains shown, IgG1 variant of h10F6) VH: EVQLQESGPGLVKPSETLSLTCTVSGFSLTNYWVSWVRQPPGKGLEWLGTMWAGGGTNYNSVFKSRLTISKDNSKNQVSLKLSSVTAADTAVYYCARERPLTGPMDYWGQGTLVTVSS VL: DIVLTQSPDSLAVSLGERATINCRASESVDYSGNSFMHWFQQKPGQPPKLLIYRASNLESGIPDRFSGSGSRTDFTLTISSLQAEDVAVYYCHQSNWDPPTFGGGTKVEIKR")
"5.87 nM"
>>> result("h10F6.V1 (antibody, IgG1, V domains shown, differs by 3 residues in the heavy chain CDRs and 1 in the light chain CDRs; also called surrogate antibody) VH: EVQLQESGPGLVKPSETLSLTCTVSGFSLTNYRVSWVRQPPGKGLEWLGVMYAGGGTNYNSVFKSRLTISKDNSKNQVSLKLSSVTAADTAVYYCARERPLTGVMDNWGQGTLVTVSS VL: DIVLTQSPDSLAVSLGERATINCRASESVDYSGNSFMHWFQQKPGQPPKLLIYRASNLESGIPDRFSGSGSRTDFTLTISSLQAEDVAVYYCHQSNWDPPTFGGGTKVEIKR")
"10.5 nM"

Problem: Could you share which Kd value was measured for h10F6.V3 (antibody, IgG1, V domains shown, IgG1 variant of h10F6) VH: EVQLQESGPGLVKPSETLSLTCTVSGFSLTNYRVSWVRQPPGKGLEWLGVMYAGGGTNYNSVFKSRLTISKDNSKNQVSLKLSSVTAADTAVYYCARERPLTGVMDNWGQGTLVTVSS VL: DIVLTQSPDSLAVSLGERATINCRASESVDYSGNSFMHWFQQKPGQPPKLLIYRASNLESGIPDRFSGSGSRTDFTLTISSLQAEDVAVYYCHQSNEDPPTFGGGTKVEIKR ?
Solution: 60.7 nM

Problem: Now this one: h10F6.V2 (antibody, IgG1, V domains shown, IgG1 variant of h10F6) VH: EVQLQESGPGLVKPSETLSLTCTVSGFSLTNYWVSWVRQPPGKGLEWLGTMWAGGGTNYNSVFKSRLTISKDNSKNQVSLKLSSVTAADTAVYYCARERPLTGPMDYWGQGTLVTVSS VL: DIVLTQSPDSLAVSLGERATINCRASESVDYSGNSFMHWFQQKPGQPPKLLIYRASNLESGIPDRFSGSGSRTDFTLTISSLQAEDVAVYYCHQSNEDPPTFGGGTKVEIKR
Solution: 16.3 nM
